- testSystem: UniProt Q04828
- Sequence (Q04828 1-323): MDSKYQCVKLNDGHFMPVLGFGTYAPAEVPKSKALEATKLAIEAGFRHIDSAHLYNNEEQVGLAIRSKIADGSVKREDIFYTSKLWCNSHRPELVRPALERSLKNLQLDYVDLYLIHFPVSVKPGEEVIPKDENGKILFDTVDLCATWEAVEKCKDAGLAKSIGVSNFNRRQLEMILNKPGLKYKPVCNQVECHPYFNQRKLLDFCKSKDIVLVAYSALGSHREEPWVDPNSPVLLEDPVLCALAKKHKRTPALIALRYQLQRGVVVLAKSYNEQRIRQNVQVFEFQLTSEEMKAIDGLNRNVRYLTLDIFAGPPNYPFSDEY
- experimentDescription: Enzyme activity (NADPH) assay with s-tetralol, recombinant GST-AKR1C1;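 further: GST-fused AKR1C1 expressed in E. coli and purified by glutathione affinity, control wells received DMSO instead of compound, duplicate samples from a single experiment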
- Assay type: biochemical
- Set-up: made in house; host or cells: Escherichia coli JM109
- experimentalConditions: 2 μM compound; Supplementary Table 1; CON 192.295568
outcomeMeasure: enzyme activity (nmol/min/mg)

compound | testSystem | quantitativeResult
C[C@H]1O[C@@H](O[C@H]2CC[C@@]3(C)[C@@H](CC[C@]4(C)[C@@H]3C=C[C@]35OC[C@@]6(CCC(C)(C)C[C@H]63)[C@H](O)C[C@]54C)[C@]2(C)CO)[C@H](O)[C@@H](O[C@@H]2O[C@H](CO)[C@@H](O)[C@H](O)[C@H]2O)[C@H]1O | UniProt Q04828 | 181.8927
O=C(O[C@@H]1Cc2c(O)cc(O)cc2O[C@@H]1c1cc(O)c(O)c(O)c1)c1cc(O)c(O)c(O)c1 [(−)-Epigallocatechin gallate] | UniProt Q04828 | 191.3949
COc1cc(/C=C/C(=O)CC(=O)/C=C/c2ccc(O)c(OC)c2)ccc1O | UniProt Q04828 | 99.03
COc1c2ccoc2cc2oc(=O)ccc12 | UniProt Q04828 | 190.1339
COc1c(O)cc(O)c2c(=O)cc(-c3ccccc3)oc12 | UniProt Q04828 | 42.8725
O=C(/C=C/c1ccc(O)cc1)CC(=O)/C=C/c1ccc(O)cc1 | UniProt Q04828 | 180.2715
O=c1c(O[C@@H]2O[C@H](CO)[C@@H](O)[C@H](O)[C@H]2O)c(-c2ccc(O)c(O)c2)oc2cc(O)cc(O)c12 | UniProt Q04828 | 122.898
COc1cc2c(=O)c(-c3ccc(O)cc3)coc2cc1O[C@@H]1O[C@H](CO)[C@@H](O)[C@H](O)[C@H]1O | UniProt Q04828 | 68.722
COc1cc(C(=O)OCCCCN=C(N)N)cc(OC)c1O.Cl [Leonurine hydrochloride] | UniProt Q04828 | 113.8912
COc1cc(-c2oc3cc(O)cc(O)c3c(=O)c2O)ccc1O | UniProt Q04828 | 197.0241
C[C@H]1O[C@@H](O[C@H]2CC[C@@]3(C)[C@@H](CC[C@]4(C)[C@@H]3C=C[C@]35OC[C@@]6(CCC(C)(C)C[C@H]63)[C@@H](O)C[C@]54C)[C@]2(C)CO)[C@H](O)[C@@H](O[C@@H]2O[C@H](CO)[C@@H](O)[C@H](O)[C@H]2O)[C@H]1O | UniProt Q04828 | 181.6675
O=c1c(-c2ccc(O)cc2)coc2cc(O[C@@H]3O[C@H](CO)[C@@H](O)[C@H](O)[C@H]3O)cc(O)c12 | UniProt Q04828 | 203.1488
O=c1c(O[C@@H]2O[C@H](CO)[C@@H](O)[C@H](O)[C@H]2O)c(-c2ccc(O)cc2)oc2cc(O)cc(O)c12 | UniProt Q04828 | 120.0159
C[C@]12C[C@@H](O)[C@@H]3C[C@@]1(O[C@@H]1O[C@H](CO)[C@@H](O)[C@H](O)[C@H]1O)[C@@]3(COC(=O)c1ccccc1)C(=O)O2 | UniProt Q04828 | 202.8786
CC1(C)O[C@H]1COc1c2ccoc2cc2oc(=O)ccc12 | UniProt Q04828 | 192.3856
COc1cc2c(c(OC)c1OC)-c1c(cc3c(c1OC)OCO3)C[C@H](C)[C@@](C)(O)C2 | UniProt Q04828 | 215.6683
CC(C)=CC[C@@H](O)C1=CC(=O)c2c(O)ccc(O)c2C1=O | UniProt Q04828 | 210.4443
CC(C)=CCOc1c2ccoc2cc2oc(=O)ccc12 | UniProt Q04828 | 170.1838
O=c1c(-c2ccc(O)cc2)coc2cc(O[C@@H]3O[C@H](CO)[C@@H](O)[C@H](O)[C@H]3O)ccc12 | UniProt Q04828 | 204.9952
O=c1c(O[C@@H]2O[C@H](CO)[C@H](O)[C@H](O)[C@H]2O)c(-c2ccc(O)c(O)c2)oc2cc(O)cc(O)c12 [Hyperoside] | UniProt Q04828 | 193.4665
COc1cc2c(cc1O)CC[n+]1cc3c(OC)c(OC)ccc3cc1-2.[Cl-] [Jatrorrhizine Hydrochloride] | UniProt Q04828 | 200.7169
COc1ccc(-c2cc(=O)c3c(OC)c(OC)c(OC)c(OC)c3o2)cc1 | UniProt Q04828 | 209.3185
COc1cc(C(=O)O[C@H]2[C@@H]3C=CO[C@@H](O[C@@H]4O[C@H](CO)[C@@H](O)[C@H](O)[C@H]4O)[C@@H]3[C@@]3(CO)O[C@@H]23)ccc1O [Picroside Ⅱ] | UniProt Q04828 | 109.658
C[C@H]1CC[C@@H]2N(C1)C[C@H]1[C@@H]3C[C@H]4[C@@H](C[C@H](O)[C@H]5C[C@@H](O)CC[C@@]54C)[C@@H]3CC[C@@H]1[C@]2(C)O | UniProt Q04828 | 183.3338
COc1c(O[C@@H]2O[C@H](C(=O)O)[C@@H](O)[C@H](O)[C@H]2O)cc(O)c2c(=O)cc(-c3ccccc3)oc12 [Wogonoside] | UniProt Q04828 | 209.3635
COc1cc2c(c(OC)c1OC)-c1c(cc(OC)c(OC)c1OC)C[C@H](C)[C@H](C)C2 | UniProt Q04828 | 209.2284
O=c1c(-c2ccc(O)cc2)coc2cc(O)ccc12 | UniProt Q04828 | 125.4199
